This section presents compounds with their documented composite z-score values.
experimental_details: probe aLAP1 signal on lysate-treated microarray – cell lysate, small-molecule microarray, COS7 lysate, primary screen (AID 1124);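 note: lysate comes from COS7 cells expressing LAP1 and is applied at 0.3 µg/mL; score merges spot fluorescence near 667 nm with signal-to-noise over triplicate slides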
assay_setup: probe aLAP1, fluorescence, higher = more signal

[
  {
    "compound": "CCOC(=O)C[C@H]1[C@H](OC(=O)c2ccc(C(=O)c3ccccc3)cc2)[C@@H](NC(=O)c2ccccc2)c2cc(OCCCO)ccc2N1C(=O)c1ccccc1",
    "composite z-score": -0.115
  },
  {
    "compound": "NC(=O)N1C(=O)C2C(C1=O)C1C=C(CCCO)C2C(C2CC2)N1Cc1cc2c(cc1Br)OCO2 (stereo not drawn)",
    "composite z-score": -0.0694
  },
  {
    "compound": "C=CCNC(=O)[C@@H]1[C@H]2C(=O)O[C@H](c3ccccc3)[C@H](c3ccccc3)N2[C@H](c2ccc(OCCO)cc2)[C@@]12C(=O)N(C(=O)OCCOC)c1ccc(C#CCNC(N)=O)cc12",
    "composite z-score": 0.662
  }
]
